Reported protein stability index values are given for each entry in this list.
B1: NP_006221.1 (parent)
chain: CQPISFSGFGAEDDDLGGLGLGP

variants of: B1; test: protein stability index of a GFP-peptide fusion (GPS, HEK-293T) (PSI 1-6); higher = more stable; conditions: c terminus: native;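 note: lentivirally expressed fusion library, cells FACS-sorted into six equal-sized GFP/DsRed ratio bins, PSI computed from sequencing read fractions per bin weighted by bin number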
Answer field: number only, no words.

Solved entries:
IN: Give the value of protein stability index reported for the following: "E12M"
OUT: 2.25

IN: Read off the recorded protein stability index for "L19Y"
OUT: 2.31

IN: Consider the variant "P23H" . State its measured protein stability index.
OUT: 3.99

IN: Complete the entry with protein stability index for "Q2W"
OUT: 2.13

IN: Note protein stability index for the variant shown: "P23L"
OUT: 3.57

Next:
IN: Please give the documented protein stability index of "L16E"
OUT: 1.85

IN: Assign protein stability index to the following record: "Q2E"
OUT: 2.43

IN: Tell me measured protein stability index for "D15G" please.
OUT: 2.57

IN: Name the recorded protein stability index of the variant listed here: "F6W"
OUT: 2.22

IN: Using known records, supply protein stability index for "I4E"
OUT: 2.41

IN: Read the entry "G20E" and write its reported protein stability index.
OUT: 2.81

IN: Input "L21H" , output reported protein stability index.
OUT: 4.76

IN: Supply measured protein stability index of "S7L" in your reply.
OUT: 2.43

IN: Supply measured protein stability index of "A11C" in your reply.
OUT: 2.08

IN: Output measured protein stability index for this item: "L21K"
OUT: 3.95

IN: In one line, give reported protein stability index of the entry "G17Y" .
OUT: 2.15

IN: Write down protein stability index measured for item "D14F"
OUT: 2.51
